# Target Desc: Short transient receptor potential channel 4 (Mus musculus) (UniProt Q9QUQ5)
# Sequence (Q9QUQ5 whole entry, looked up): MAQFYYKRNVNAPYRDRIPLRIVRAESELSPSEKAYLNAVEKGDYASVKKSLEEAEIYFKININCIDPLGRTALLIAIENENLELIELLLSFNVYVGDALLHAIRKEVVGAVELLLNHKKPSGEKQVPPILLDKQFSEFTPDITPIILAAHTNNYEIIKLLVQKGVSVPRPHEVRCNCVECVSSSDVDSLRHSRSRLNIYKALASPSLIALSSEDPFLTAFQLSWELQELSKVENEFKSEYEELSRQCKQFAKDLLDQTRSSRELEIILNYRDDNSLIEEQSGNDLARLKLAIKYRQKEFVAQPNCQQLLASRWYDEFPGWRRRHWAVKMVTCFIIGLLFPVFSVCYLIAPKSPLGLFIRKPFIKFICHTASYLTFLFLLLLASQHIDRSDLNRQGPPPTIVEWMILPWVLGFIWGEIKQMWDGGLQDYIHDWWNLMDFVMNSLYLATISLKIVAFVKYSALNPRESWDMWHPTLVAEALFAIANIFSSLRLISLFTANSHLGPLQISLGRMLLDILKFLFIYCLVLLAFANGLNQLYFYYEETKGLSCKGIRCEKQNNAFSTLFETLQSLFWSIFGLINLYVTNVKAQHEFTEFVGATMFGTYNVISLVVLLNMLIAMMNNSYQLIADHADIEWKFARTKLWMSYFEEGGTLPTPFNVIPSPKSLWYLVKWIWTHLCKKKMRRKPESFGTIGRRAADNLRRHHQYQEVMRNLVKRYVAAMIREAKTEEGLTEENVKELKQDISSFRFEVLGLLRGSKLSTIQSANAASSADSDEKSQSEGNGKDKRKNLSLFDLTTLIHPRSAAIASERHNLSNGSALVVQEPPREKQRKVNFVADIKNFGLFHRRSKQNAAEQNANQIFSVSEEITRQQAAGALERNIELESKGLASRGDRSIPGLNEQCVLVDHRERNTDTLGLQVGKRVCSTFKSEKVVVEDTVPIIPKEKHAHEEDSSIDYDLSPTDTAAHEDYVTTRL
# Test Name: blockers of DAMGO-evoked TRPC4 calcium flux – cell-based, second round, Fluo4, HEK293 TRPC4beta/mu-opioid, 1 µM, confirmation (AID 2637)
# Condition Summary: at 1 µM
The source made the active and inactive calls.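 The calls were made as follows: active = calcium signal ratio cut to more than 3 SD under the fully stimulated control mean yet still positive, in both repeats and the primary screen; inactive = the rest.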
I would appreciate it if you answered using one of these outcomes: Yes (active), No (inactive)

Would you please look over these solved cases?
O=C1CCSc2ccc(Cl)cc2N1Cc1ccc(Cl)cc1 ... No
CC(C)(C)c1cc(O)c(C(C)(C)C)cc1O ... No
CCC(C)[C@H](Nc1nc(-c2ccccc2)nc2c1oc1ccccc12)C(=O)O (stereo not given in full) ... No
CC(Oc1ccc(Cl)cc1Cl)C(=O)N(C)c1ccccc1 (stereo not given) ... No
CCOC(=O)c1c(C(F)(F)C(F)(F)C(F)(F)C(F)(F)F)n[nH]c1C ... No

For CCN(CC)CCN(Cc1cc2ccc(C)cc2[nH]c1=O)C(=S)Nc1ccccc1C(=O)OC , what call appears in the results of this test? No

For O=C(CN1CCN(Cc2ccccc2Cl)CC1)N=Nc1c(O)[nH]c2ccccc12 , what call appears in the results of this test? Yes

For CCOc1ccccc1-n1c(SCC(=O)Nc2nccs2)nnc1-c1ccoc1C , what call appears in the results of this test? Yes

For Cc1cccc(-n2nc(C)c3c(C(=O)O)cc(-c4cccs4)nc32)c1 , what call appears in the results of this test? No

For CCN1CCN(c2ccc(S(=O)(=O)N3CCCCC3)cc2NC(=O)CC(C)c2ccccc2)CC1 (stereo not given) , what call appears in the results of this test? No

----------
# Target Desc: Short transient receptor potential channel 4 (Mus musculus)
# Test Name: blockers of DAMGO-evoked TRPC4 calcium flux – cell-based, Fluo4, HEK293 TRPC4beta/mu-opioid, confirmation (AID 2636)
# Condition Summary: at 10 µM
The source made the active and inactive calls.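 Rule for the calls: active = calcium signal cut by more than 3 SD below the full-agonist control yet still positive, in both repeats and the earlier primary screen; inactive = the rest.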
I would appreciate it if you answered using one of these outcomes: label 1 (active), label 0 (inactive)

Would you please look over these solved cases?
CCN1CCN(c2ccc(S(=O)(=O)N3CCCCC3)cc2NC(=O)c2cc3ccccc3o2)CC1 ... label 0
CC(=O)n1cc([C@H]2C=C(C(=O)NCc3ccccc3)O[C@@H](OCc3ccc(CO)cc3)C2)c2ccccc21 ... label 0
CCCCn1c(NCc2ccc(N(C)C)cc2)nc2ccccc21 ... label 1
OC(CNCCC(c1ccccc1)c1ccccc1)COc1ccccc1 (stereo not given) ... label 0
CCOc1cc(/C=C2\CN(CC)C/C(=C\c3ccc(O)c(OCC)c3)C2=O)ccc1O ... label 0
COc1ccc2c(c1)c1ncn(CCN3CCCC3)c(=O)c1n2C ... label 0

For NC(=O)c1nsc(C(=O)N(Cc2ccco2)C(C(=O)NCc2ccc(F)cc2)c2ccc(O)cc2)c1N (stereo not given) , what call appears in the results of this test? label 1

For CCN1CCN(c2ncnc3sc(C)c(-c4ccccc4)c23)CC1 , what call appears in the results of this test? label 0

For CC1CC(C)CN(CCCNC(=O)Cn2cccc2C(=O)c2ccccc2)C1 (stereo not given) , what call appears in the results of this test? label 0

----------
# Test Name: serotonin-gated TRPC4 signal block – cell-based, second counter screen, HEK293 TRPC4/5HT1a, Fluo-4, counter-screen for TRPC4 inhibitor project, confirmation (AID 434978)
# Condition Summary: Fluo-4 calcium flux, at 10 µM, serotonin added to trigger calcium flux
Activity calls are given as the source filed them.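 Rule for the calls: active = primary screen active whose calcium signal fell more than 3 SD beyond the full-serotonin control mean in both duplicate plates; inactive = the rest.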
I would appreciate it if you answered using one of these outcomes: active, inactive

CSc1ncccc1C(=O)OCC(=O)N(CC(C)C)c1c(N)n(Cc2ccccc2)c(=O)[nH]c1=O ... inactive
O=S(=O)(Nc1ccc(S(=O)(=O)Nc2cccc3ccccc23)cc1)c1ccccc1 ... inactive
C1CCN(c2nc(N3CCCC3)nc(N3CCNCC3)n2)C1 ... inactive
CCCCCN1C2=NCCN2c2ccccc21 ... active
CCn1c(N2CCN(C(=S)NCCc3ccccc3)CC2)nc2ccccc21 ... inactive
Cc1ccccc1OCCNc1cc(N2CCNCC2)ccc1[N+](=O)[O-] ... inactive
Cc1cccn2c(=O)c3cc(C(=O)N(C)C)n(C)c3nc12 ... inactive
C(#Cc1ccccc1)C[N+]1(CC#Cc2cccc3ccccc23)CCCC1 ... inactive

For Cc1ccccc1N1CC(O)(c2ccccc2)[N+]2=C1SCC2 (stereo unspecified) , what call appears in the results of this test? inactive

For COc1ccc(C2C(C(C)=O)=C(O)C(=O)N2c2ccc(Br)cc2)cc1 (stereo unspecified) , what call appears in the results of this test? active

For N=c1c2c(n(Cc3ccc(Br)cc3)c3c1CCC3)CCCC2 , what call appears in the results of this test? inactive
